These data points were gathered from paper PMC9721025.

# Protocol notes: Pharmacokinetics in beagles, single-dose regimen of TRQI (i.v.) or TRQC (oral), plasma LC-MS/MS
# Assay type: in vivo, beagle
# Condition description: both sexes, beagle, dog, plasma, iv, 0.5 mL/kg, single TRQI 0.5 mL/kg; Mean; read-out: AUC0–24 h
Assay metric: AUC(0-t) (ng·h/mL)

Structure	AUC(0-t) (ng·h/mL)
O=C(O)[C@H]1O[C@@H](Oc2cc3oc(-c4ccccc4)cc(=O)c3c(O)c2O)[C@H](O)[C@@H](O)[C@@H]1O	44.4

a = C[C@H](CCC(=O)O)[C@H]1CC[C@H]2[C@@H]3[C@H](O)C[C@@H]4C[C@H](O)CC[C@]4(C)[C@H]3CC[C@]12C
b = C[C@H](CCC(=O)O)[C@H]1CC[C@H]2[C@@H]3[C@@H](O)C[C@@H]4C[C@H](O)CC[C@]4(C)[C@H]3CC[C@]12C
c = O=C(/C=C/c1ccc(O)c(O)c1)O[C@@H]1C[C@](O)(C(=O)O)C[C@@H](O)[C@H]1O
Q: Give the ascending ranking of the items by reported AUC(0-t). Write the labels out in the order the request specifies.
A: c, a, b

====

# Protocol notes: Stability of analytes in dog plasma (QC samples)
# Assay type: in vitro ADME
# Condition description: n = 3, high QC: nominal 200 ng/mL baicalin, 1000 ursodeoxycholic acid, 100 chenodeoxycholic acid and chlorogenic acid
Assay metric: Short-term stability (6 h at room temperature) Mean ± S.D concentration (ng/mL)

A = C[C@H](CCC(=O)O)[C@H]1CC[C@H]2[C@@H]3[C@H](O)C[C@@H]4C[C@H](O)CC[C@]4(C)[C@H]3CC[C@]12C [Chenodeoxycholic acid, chenodeoxycholic acid]
B = C[C@H](CCC(=O)O)[C@H]1CC[C@H]2[C@@H]3[C@@H](O)C[C@@H]4C[C@H](O)CC[C@]4(C)[C@H]3CC[C@]12C [Ursodeoxycholic acid, ursodeoxycholic acid]
Q: Hi team, can someone confirm which has the larger Short-term stability (6 h at room temperature) Mean ± S.D concentration: A or B ? Thanks. Refer to your chosen entry by its label in the reply.
A: B
(B: 1104.46 ng/mL, A: 101.57 ng/mL)

====

# Protocol notes: Pharmacokinetics in beagles, single-dose regimen of TRQI (i.v.) or TRQC (oral), plasma LC-MS/MS
# Assay type: in vivo, beagle
# Condition description: male, beagle, dog, plasma, po, 0.09 g/kg, single TRQCs 0.09 g/kg; beagle No 2; read-out: AUC0–24 h
# Method: 100 μL plasma sample was drawn and transferred to 1.5 mL centrifuge tube prior to 300 μL protein precipitant (3:1 [v/v] methanol/acetonitrile, containing 0.1% formic acid and 100 ng/mL IS) was added, and then the sample was vortex-mixed for 3 min. The mixture was centrifuged at 20,000 ×g for 10 min, and 100 μL supernatant was transferred to the injection vial and analyzed directly by LC–MS/MS. […]
Assay metric: AUC(0-t) (ng·h/mL)

Structure	Unit tag	AUC(0-t)
C[C@H](CCC(=O)O)[C@H]1CC[C@H]2[C@@H]3[C@@H](O)C[C@@H]4C[C@H](O)CC[C@]4(C)[C@H]3CC[C@]12C	ng·h/mL	3190
O=C(O)[C@H]1O[C@@H](Oc2cc3oc(-c4ccccc4)cc(=O)c3c(O)c2O)[C@H](O)[C@@H](O)[C@@H]1O	ng·h/mL	36.4

A = C[C@H](CCC(=O)O)[C@H]1CC[C@H]2[C@@H]3[C@H](O)C[C@@H]4C[C@H](O)CC[C@]4(C)[C@H]3CC[C@]12C
B = O=C(/C=C/c1ccc(O)c(O)c1)O[C@@H]1C[C@](O)(C(=O)O)C[C@@H](O)[C@H]1O
Q: Of the pair A and B , name the member with the lesser recorded AUC(0-t). Refer to your chosen entry by its label in the reply.
A: B

====

# Protocol notes: Pharmacokinetics in beagles, multiple-dose regimen (once per day for 7 days) of TRQI or TRQC, plasma LC-MS/MS
# Type: in vivo
# Condition description: male, beagle, dog, iv, 0.5 mL/kg, TRQI 0.5 mL/kg for 7 days, beagle No. 1, read-out: AUC0–24 h
Assay metric: AUC(0-t) (ng·h/mL)

Compound	Unit tag	Endpoint value
C[C@H](CCC(=O)O)[C@H]1CC[C@H]2[C@@H]3[C@H](O)C[C@@H]4C[C@H](O)CC[C@]4(C)[C@H]3CC[C@]12C [Chenodeoxycholic acid, chenodeoxycholic acid]	ng·h/mL	20000
O=C(O)[C@H]1O[C@@H](Oc2cc3oc(-c4ccccc4)cc(=O)c3c(O)c2O)[C@H](O)[C@@H](O)[C@@H]1O [Baicalin, baicalin]	ng·h/mL	42.6

a = O=C(/C=C/c1ccc(O)c(O)c1)O[C@@H]1C[C@](O)(C(=O)O)C[C@@H](O)[C@H]1O [Chlorogenic acid, chlorogenic acid]
b = C[C@H](CCC(=O)O)[C@H]1CC[C@H]2[C@@H]3[C@@H](O)C[C@@H]4C[C@H](O)CC[C@]4(C)[C@H]3CC[C@]12C [Ursodeoxycholic acid, ursodeoxycholic acid]
Q: Hi team, can someone confirm which has the larger AUC(0-t): a or b ? Thanks. Refer to your chosen entry by its label in the reply.
A: b
(b: 72400 ng·h/mL, a: 6.07 ng·h/mL)

====

# Protocol notes: Pharmacokinetics in beagles, multiple-dose regimen (once per day for 7 days) of TRQI or TRQC, plasma LC-MS/MS
# Format: in vivo
# Condition description: both sexes, beagle, dog, iv, TRQI 0.5 mL/kg once per day for 7 days, mean
Assay metric: Cmax at 7 days (ng/mL)

Sample records with Cmax at 7 days:
Structure	Assay metric	Endpoint value
C[C@H](CCC(=O)O)[C@H]1CC[C@H]2[C@@H]3[C@@H](O)C[C@@H]4C[C@H](O)CC[C@]4(C)[C@H]3CC[C@]12C	Cmax at 7 days	5060
O=C(O)[C@H]1O[C@@H](Oc2cc3oc(-c4ccccc4)cc(=O)c3c(O)c2O)[C@H](O)[C@@H](O)[C@@H]1O	Cmax at 7 days	1370

A = C[C@H](CCC(=O)O)[C@H]1CC[C@H]2[C@@H]3[C@H](O)C[C@@H]4C[C@H](O)CC[C@]4(C)[C@H]3CC[C@]12C
B = O=C(/C=C/c1ccc(O)c(O)c1)O[C@@H]1C[C@](O)(C(=O)O)C[C@@H](O)[C@H]1O
Q: Hi team, can someone confirm which has the larger Cmax at 7 days: A or B ? Thanks. Refer to your chosen entry by its label in the reply.
A: A
(A: 968 ng/mL, B: 20.3 ng/mL)

====

# Protocol notes: Pharmacokinetics in beagles, multiple-dose regimen (once per day for 7 days) of TRQI or TRQC, plasma LC-MS/MS
# Assay type: in vivo
# Condition description: male, beagle, dog, iv, 0.5 mL/kg, TRQI 0.5 mL/kg for 7 days, beagle No. 3
Assay metric: AUC(0-inf) (ng·h/mL)

Structure	AUC(0-inf), ng·h/mL
C[C@H](CCC(=O)O)[C@H]1CC[C@H]2[C@@H]3[C@@H](O)C[C@@H]4C[C@H](O)CC[C@]4(C)[C@H]3CC[C@]12C	14600

a = C[C@H](CCC(=O)O)[C@H]1CC[C@H]2[C@@H]3[C@H](O)C[C@@H]4C[C@H](O)CC[C@]4(C)[C@H]3CC[C@]12C
b = O=C(/C=C/c1ccc(O)c(O)c1)O[C@@H]1C[C@](O)(C(=O)O)C[C@@H](O)[C@H]1O
Q: Hi team, can someone confirm which has the larger AUC(0-inf): a or b ? Thanks. Refer to your chosen entry by its label in the reply.
A: a
(a: 3250 ng·h/mL, b: 9.2 ng·h/mL)

====

# Protocol notes: Pharmacokinetics in beagles, multiple-dose regimen (once per day for 7 days) of TRQI or TRQC, plasma LC-MS/MS
# Type: in vivo
# Condition description: female, beagle, dog, po, 0.09 g/kg, TRQC 0.09 g/kg for 7 days, beagle No. 4
Assay metric: AUC(0-inf) (ng·h/mL)

P = C[C@H](CCC(=O)O)[C@H]1CC[C@H]2[C@@H]3[C@H](O)C[C@@H]4C[C@H](O)CC[C@]4(C)[C@H]3CC[C@]12C [Chenodeoxycholic acid, chenodeoxycholic acid]
Q = C[C@H](CCC(=O)O)[C@H]1CC[C@H]2[C@@H]3[C@@H](O)C[C@@H]4C[C@H](O)CC[C@]4(C)[C@H]3CC[C@]12C [Ursodeoxycholic acid, ursodeoxycholic acid]
R = O=C(/C=C/c1ccc(O)c(O)c1)O[C@@H]1C[C@](O)(C(=O)O)C[C@@H](O)[C@H]1O [Chlorogenic acid, chlorogenic acid]
Q: Exam item: list the entries in increasing order of AUC(0-inf). Write the labels out in the order the request specifies.
A: R, P, Q

====

# Protocol notes: Pharmacokinetics in beagles, multiple-dose regimen (once per day for 7 days) of TRQI or TRQC, plasma LC-MS/MS
# Format: in vivo
# Condition description: male, beagle, dog, po, 0.09 g/kg, TRQC 0.09 g/kg for 7 days, beagle No. 1, read-out: AUC0–24 h
# Experimental: 100 μL plasma sample was drawn and transferred to 1.5 mL centrifuge tube prior to 300 μL protein precipitant (3:1 [v/v] methanol/acetonitrile, containing 0.1% formic acid and 100 ng/mL IS) was added, and then the sample was vortex-mixed for 3 min. The mixture was centrifuged at 20,000 ×g for 10 min, and 100 μL supernatant was transferred to the injection vial and analyzed directly by LC–MS/MS. […]
Assay metric: AUC(0-t) (ng·h/mL)

Structure	Unit tag	AUC(0-t)
C[C@H](CCC(=O)O)[C@H]1CC[C@H]2[C@@H]3[C@@H](O)C[C@@H]4C[C@H](O)CC[C@]4(C)[C@H]3CC[C@]12C	ng·h/mL	2760

I = O=C(/C=C/c1ccc(O)c(O)c1)O[C@@H]1C[C@](O)(C(=O)O)C[C@@H](O)[C@H]1O
II = C[C@H](CCC(=O)O)[C@H]1CC[C@H]2[C@@H]3[C@H](O)C[C@@H]4C[C@H](O)CC[C@]4(C)[C@H]3CC[C@]12C
Q: Of the pair I and II , name the member with the lesser recorded AUC(0-t). Refer to your chosen entry by its label in the reply.
A: I
(I: 0.72 ng·h/mL, II: 195 ng·h/mL)
